Data provenance: paper PMC9196953

Below are pKi values measured for rat A2A receptors (Rattus norvegicus).
Quick note: pKi means taking -log10 of the concentration in moles per liter.

// solved cases for pKi follow
- molecule: "CCCn1c(=O)c2[nH]c(-c3ccc(OCC(=O)NN4C(=O)CC[C@H](NC(=O)C(F)(F)F)C4=O)cc3)nc2n(CCC)c1=O [Compound 24b]"
  quantity_name: "pKi"
  value_reported: 6.36
- molecule: "CCCn1c(=O)c2[nH]c(-c3ccc(OCC(=O)NN4C(=O)C5CC=CCC5C4=O)cc3)nc2n(CCC)c1=O (stereo not drawn) [Compound 18b]"
  quantity_name: "pKi"
  value_reported: 6.16
- molecule: "CCCn1c(=O)c2[nH]c(-c3ccc(OCC(=O)NN4C(=O)C(c5ccccc5)=C(c5ccccc5)C4=O)cc3)nc2n(CCC)c1=O"
  quantity_name: "pKi"
  value_reported: 5.68

Value lookup for pKi; key = CCCn1c(=O)c2[nH]c(-c3ccc(OCC(=O)NNC(=O)C4=C(C(=O)O)CCC4)cc3)nc2n(CCC)c1=O [Compound 19a]
6.15

What value of measured pKi is listed for CCCn1c(=O)c2[nH]c(-c3ccc(OCC(=O)NNC(=O)[C@H](CCSC)NC(=O)OC(C)(C)C)cc3)nc2n(CCC)c1=O ?
6.28

Dear colleague, I am looking for the recorded pKi of the following molecule: CCCn1c(=O)c2[nH]c(-c3ccc(OCC(=O)NN4C(=O)c5ccccc5C4=O)cc3)nc2n(CCC)c1=O
6.41
